pKi: −log10 of the molar value. Where a SMILES comes first, the peptide text is derived from it. [ ]: non-standard residue; d: D form. ξ: configuration not given here. Phe(4-NO2) = N[C@@H](Cc1ccc([N+](=O)[O-])cc1)C(=O)O; Phe(4-Cl) = N[C@@H](Cc1ccc(Cl)cc1)C(=O)O; Thr(3ξ) = CC(O)[C@H](N)C(=O)O
// each record: one item and its pKi for Somatostatin receptor type 3 (Mus musculus, UniProt P30935)

{"columns": ["compound", "pKi"],
 "data": [
  ["CC(O)[C@H](NC(=O)[C@H](CCCCN)NC(=O)[C@@H](Cc1c[nH]c2ccccc12)NC(=O)[C@H](Cc1ccccc1)NC(=O)[C@@H](C)NC(=O)[C@@H](N)Cc1ccccc1)C(=O)N[C@@H](C)C(=O)N[C@H](C(N)=O)[C@@H](C)O (stereo partly drawn) [BIM 23051] (H-F[dA]F[dW]K[Thr(3ξ)]AT-NH2)", 7.14],
  ["CC(C)[C@H](NC(=O)[C@H](CCCCN)NC(=O)[C@@H](Cc1c[nH]c2ccccc12)NC(=O)[C@H](Cc1ccc(O)cc1)NC(=O)[C@H](Cc1ccc([N+](=O)[O-])cc1)NC(=O)[C@H](N)Cc1ccccc1)C(=O)N[C@@H](Cc1ccccc1)C(=O)N[C@H](C(N)=O)[C@@H](C)O [BIM 23066] (H-[dF][Phe(4-NO2)]Y[dW]KVFT-NH2)", 8.96],
  ["CC(C)[C@H](NC(=O)[C@H](CCCCN)NC(=O)[C@@H](Cc1c[nH]c2ccccc12)NC(=O)[C@H](Cc1ccc(O)cc1)NC(=O)[C@H](Cc1ccc(Cl)cc1)NC(=O)[C@@H](N)Cc1ccccc1)C(=O)N[C@@H](Cc1ccccc1)C(=O)N[C@H](C)C(N)=O [BIM 23064] (H-F[Phe(4-Cl)]Y[dW]KVF[dA]-NH2)", 7.47]
]}

* * *

Here, each record is paired with measured pKi data.
Target: Somatostatin receptor type 3 (Mus musculus, UniProt P30935)
Sequence (P30935 whole entry): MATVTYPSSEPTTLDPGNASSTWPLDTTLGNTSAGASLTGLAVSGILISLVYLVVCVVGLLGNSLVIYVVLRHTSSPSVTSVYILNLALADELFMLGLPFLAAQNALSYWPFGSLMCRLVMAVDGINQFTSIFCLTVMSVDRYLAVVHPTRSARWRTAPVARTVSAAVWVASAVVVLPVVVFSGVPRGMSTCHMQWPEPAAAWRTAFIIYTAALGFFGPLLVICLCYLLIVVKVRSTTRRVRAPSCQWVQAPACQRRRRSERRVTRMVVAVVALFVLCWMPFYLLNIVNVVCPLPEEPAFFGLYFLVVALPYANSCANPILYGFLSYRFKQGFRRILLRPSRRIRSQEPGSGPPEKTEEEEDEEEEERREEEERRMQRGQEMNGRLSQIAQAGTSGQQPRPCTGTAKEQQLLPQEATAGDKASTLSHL
pKi: −log10 of the molar value. *1 amine or outer side, *2 acyl side, *3 side chain or, on linkers, in order; H or OH if unused. Where a SMILES comes first, the peptide text is derived from it. Bridges are numbered along the chain shown (N, C = ends). [ ]: non-standard residue; d: D form. The star is where a group is joined. NH(1-naphthylmethyl) = c1ccc2c(CN*)cccc2c1; Phe(4-Cl) = N[C@@H](Cc1ccc(Cl)cc1)C(=O)O; 2Nal = N[C@@H](Cc1ccc2ccccc2c1)C(=O)O; d2Nal = N[C@H](Cc1ccc2ccccc2c1)C(=O)O; dNMeF = CN[C@H](Cc1ccccc1)C(=O)O; X1 = O=C(C(N[*:1])S[*:3])[*:2]; dNMeA = CN[C@H](C)C(=O)O; Aoc = NCCCCCCCC(=O)O; Ahp = NCCCCCCC(=O)O; Bn = c1ccc(C*)cc1; Mpa = O=C(O)CCS
measure: pKi

{"columns": ["compound", "reported"],
 "data": [
  ["CC(C)[C@@H]1NC(=O)[C@H](CCCCN)NC(=O)[C@@H](Cc2c[nH]c3ccccc23)NC(=O)[C@H](Cc2ccc(O)cc2)NC(=O)CCSSC(C(=O)N[C@@H](Cc2ccccc2)C(N)=O)NC1=O (some centres undefined) [CAS_117580-24-2] ([Mpa]Y[dW]KV[X1]F-NH2; disulfide 1-6)", 6.88],
  ["CC(C)[C@@H]1NC(=O)[C@H](CCCCN)NC(=O)[C@@H](Cc2c[nH]c3ccccc23)NC(=O)[C@H](Cc2ccc(O)cc2)NC(=O)[C@H](C)N(C)C(=O)[C@H](Cc2ccccc2)NC1=O", 7.92],
  ["C[C@@H](O)[C@H](NC(=O)[C@H](Cc1ccccc1)NC(=O)[C@@H](NC(=O)[C@H](CCCCN)NC(=O)[C@@H](Cc1c[nH]c2ccccc12)NC(=O)[C@H](Cc1ccc(O)cc1)NC(=O)[C@H](Cc1ccc(Cl)cc1)NC(=O)[C@H](N)Cc1ccccc1)[C@@H](C)O)C(N)=O [BIM 23068] (H-[dF][Phe(4-Cl)]Y[dW]KTFT-NH2)", 9.10],
  ["C[C@H](O)[C@H]1NC(=O)[C@H](CCCCN)NC(=O)[C@@H](Cc2c[nH]c3ccccc23)NC(=O)[C@@H](Cc2ccccc2)NC(=O)[C@@H](C)N(C)C(=O)[C@@H](Cc2ccccc2)N(C)C1=O (cyclo(K[dT][dNMeF][dNMeA][dF][dW]))", 7.72],
  ["CC(C)[C@@H]1NC(=O)[C@H](CCCCN)NC(=O)[C@@H](Cc2c[nH]c3ccccc23)NC(=O)[C@H](Cc2ccc(O)cc2)NC(=O)[C@@H](C)N(C)C(=O)[C@H](Cc2ccccc2)NC1=O", 8.33],
  ["C[C@@H](OCc1ccccc1)[C@@H]1NC(=O)[C@H](CCCCN)NC(=O)[C@@H](Cc2c[nH]c3ccccc23)NC(=O)[C@H](Cc2ccccc2)NC(=O)CCCCCCCNC1=O [c[Aoc-Phe-D-Trp-Lys-Thr(Bzl)]] (cyclo([Aoc]F[dW]KT(Bn)))", 7.00],
  ["CC(C)[C@@H]1NC(=O)[C@H](CCCCN)NC(=O)[C@@H](Cc2c[nH]c3ccccc23)NC(=O)[C@H](Cc2ccc(O)cc2)NC(=O)[C@@H](NC(=O)[C@H](N)Cc2ccc3ccccc3c2)CSSC[C@@H](C(=O)N[C@H](C(N)=O)[C@@H](C)O)NC1=O", 8.25],
  ["CC(C)[C@H](NC(=O)[C@H](CCCCN)NC(=O)[C@@H](Cc1c[nH]c2ccccc12)NC(=O)[C@H](Cc1ccc(O)cc1)NC(=O)[C@H](Cc1ccccc1)NC(=O)[C@H](N)Cc1ccccc1)C(=O)N[C@@H](Cc1ccccc1)C(=O)N[C@H](C(N)=O)[C@@H](C)O [BIM-23058] (H-[dF]FY[dW]KVFT-NH2)", 10.40],
  ["C[C@@H](O)[C@@H]1NC(=O)[C@H](Cc2ccccc2)NC(=O)[C@H]([C@@H](C)O)NC(=O)[C@H](CCCCN)NC(=O)[C@@H](Cc2c[nH]c3ccccc23)NC(=O)[C@H](Cc2ccccc2)NC(=O)[C@H](Cc2ccc(Cl)cc2)NC(=O)[C@H](CC(N)=O)NC(=O)[C@H](CCCCN)NC(=O)[C@@H](N)CSSC[C@@H](C(=O)O)NC(=O)[C@H](CO)NC1=O [EC5-21] (H-CKN[Phe(4-Cl)]F[dW]KTFTSC-OH; disulfide 1-12)", 8.68],
  ["CC(C)[C@H](NC(=O)[C@H](CCCCN)NC(=O)[C@@H](Cc1c[nH]c2ccccc12)NC(=O)[C@H](Cc1ccc(O)cc1)NC(=O)[C@H](C)NC(=O)[C@H](N)Cc1ccccc1)C(=O)N[C@@H](C)C(=O)N[C@H](Cc1ccc2ccccc2c1)C(N)=O (H-[dF]AY[dW]KVA[d2Nal]-NH2)", 7.19],
  ["C[C@@H](O)[C@H](NC(=O)[C@H](Cc1ccccc1)NC(=O)[C@@H](NC(=O)[C@H](CCCCN)NC(=O)[C@@H](Cc1c[nH]c2ccccc12)NC(=O)[C@H](Cc1ccc(O)cc1)NC(=O)[C@H](Cc1ccc(Cl)cc1)NC(=O)[C@H](N)Cc1ccc2ccccc2c1)[C@@H](C)O)C(N)=O [CAS_150155-63-8] (H-[d2Nal][Phe(4-Cl)]Y[dW]KTFT-NH2)", 7.96],
  ["CC(C)[C@H](NC(=O)[C@H](CCCCN)NC(=O)[C@@H](Cc1c[nH]c2ccccc12)NC(=O)[C@H](Cc1ccc(O)cc1)NC(=O)[C@H](C)NC(=O)[C@H](N)Cc1ccccc1)C(=O)N[C@@H](C)C(=O)N[C@@H](Cc1ccc2ccccc2c1)C(N)=O (H-[dF]AY[dW]KVA[2Nal]-NH2)", 6.82],
  ["C[C@@H](O)[C@@H]1NC(=O)[C@H](CCCCN)NC(=O)[C@@H](Cc2c[nH]c3ccccc23)NC(=O)[C@H](Cc2ccc(Cl)cc2)NC(=O)[C@H](Cc2ccccc2)NC(=O)CCCCCCNC(=O)[C@H](Cc2ccccc2)NC1=O [L-362862] (cyclo([Ahp]F[Phe(4-Cl)][dW]KTF))", 7.62],
  ["NCCCCC1NC(=O)C(Cc2c[nH]c3ccccc23)NC(=O)C(Cc2ccc(O)cc2)NC(=O)C(NC(=O)C(N)Cc2ccccc2)CSSCC(C(=O)NCc2cccc3ccccc23)NC(=O)C(CO)NC1=O (centres undefined) [NC4-28B] (H-FCYWKSC-{NH(1-naphthylmethyl)}; disulfide 2-7; configuration not given here)", 6.95]
]}
